- System Under Test: hepatic lipase (HL) (Homo sapiens (Human), UniProt P11150)
- Sequence (P11150 23-499, species assumed): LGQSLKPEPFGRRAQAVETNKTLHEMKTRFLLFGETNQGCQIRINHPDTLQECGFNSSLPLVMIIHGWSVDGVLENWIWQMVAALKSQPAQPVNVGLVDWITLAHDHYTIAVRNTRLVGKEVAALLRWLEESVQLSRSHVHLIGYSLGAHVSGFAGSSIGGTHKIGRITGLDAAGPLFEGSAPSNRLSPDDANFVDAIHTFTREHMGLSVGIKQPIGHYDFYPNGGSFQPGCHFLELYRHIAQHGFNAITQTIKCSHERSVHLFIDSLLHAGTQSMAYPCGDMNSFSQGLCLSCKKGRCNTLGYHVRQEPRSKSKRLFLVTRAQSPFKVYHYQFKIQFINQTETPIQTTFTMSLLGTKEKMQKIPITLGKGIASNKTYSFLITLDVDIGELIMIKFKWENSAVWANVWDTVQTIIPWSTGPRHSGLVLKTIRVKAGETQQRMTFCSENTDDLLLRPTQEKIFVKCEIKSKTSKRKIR
- Experiment Summary: HL assay: hepatic lipase activity with fluorescent substrate A10070 in DMPG vesicles
- Assay type: biochemical
pIC50: −log10 of the molar value.
Observed Property: pIC50

[
  {
    "Compound": "Cc1nnc(CNC(=O)C(c2nc3cc(F)c(-c4ccccc4)cc3s2)S(C)(=O)=O)o1 (stereo not shown) [Example B154]",
    "Relational Operator": "=",
    "Test Result": 7.96
  },
  {
    "Compound": "COc1cc(-c2ccc3nc(C(C(=O)NCCS(N)(=O)=O)S(C)(=O)=O)sc3c2)ccn1 (stereo not shown) [Example B147]",
    "Relational Operator": ">",
    "Test Result": 8.00
  },
  {
    "Compound": "CCS(=O)(=O)C(C(=O)NCc1nnc(C)o1)c1nc2cc(F)c(-c3ccccc3)cc2s1 (stereo not shown) [Example B151]",
    "Relational Operator": "=",
    "Test Result": 7.33
  },
  {
    "Compound": "NC(=O)c1cccc(-c2ccc3nc(C(C(=O)NCCS(N)(=O)=O)S(=O)(=O)CCC(F)(F)F)sc3c2)c1 (stereo not shown) [Example B331]",
    "Relational Operator": "=",
    "Test Result": 6.67
  },
  {
    "Compound": "COCc1ccc(-c2ccc3nc(C(C(=O)NCCS(N)(=O)=O)S(=O)(=O)Cc4ccc(OC(F)(F)F)cc4)sc3c2)cc1 (stereo not shown) [Example B285]",
    "Relational Operator": "=",
    "Test Result": 6.90
  },
  {
    "Compound": "Cc1cc2nc(C(C(=O)NCCS(N)(=O)=O)S(=O)(=O)CC(C)C)sc2cc1-c1ccc(F)nc1 (stereo not shown) [Example B131]",
    "Relational Operator": "=",
    "Test Result": 7.92
  },
  {
    "Compound": "CS(=O)(=O)C(C(=O)NCCS(N)(=O)=O)c1nc2ccc(-c3ccc(C(=O)N4CCC(F)(F)CC4)cc3)cc2s1 (stereo not shown) [Example B171]",
    "Relational Operator": "=",
    "Test Result": 7.72
  }
]

Where do the numbers come from? From patent US8987314B2.
